# procedure.text: Pharmacokinetic study in nude mice, oral
# Assay type: in vivo
# study.conditions: mouse, one oral bolus 40 mg/kg, plasma, read-out: time to maximal concentration (Tmax)
readout.label: Tmax (min)

> print(dat)
                                test.smiles  readout.label  measured.result
1  N#C/C(=C\C=C\c1ccc(-c2cc(Cl)ccc2Cl)o1)C(N)=S           Tmax               30

---

# procedure.text: Pharmacokinetic study in nude mice, oral
# Type: in vivo
# study.conditions: mouse, one oral bolus 40 mg/kg, plasma, read-out: mean residence time (MRT)
readout.label: MRT

> print(dat)
                                test.smiles  measured.result
1  N#C/C(=C\C=C\c1ccc(-c2cc(Cl)ccc2Cl)o1)C(N)=S           4.48 h

---

# procedure.text: Pharmacokinetic study in nude mice, oral
# Assay type: in vivo
# study.conditions: nude, mouse, plasma, po, 40 mg/kg, one oral bolus 40 mg/kg, read-out: half-life (t1/2) (converted)
readout.label: half-life

> print(dat)
                                test.smiles  readout.label  measured.result
1  N#C/C(=C\C=C\c1ccc(-c2cc(Cl)ccc2Cl)o1)C(N)=S      half-life           2.03 h
